- run-description: in vitro
- measurement-parameters: human, hela cells, % viability
value-kind: viability at 28.5 h, 10 µM
In your response, the unit should come after the numeric value.

Worked cases, viability at 28.5 h, 10 µM given:
Notebook: `CCCOc1ccc(CCNc2ncnc(N)n2)cc1` , viability at 28.5 h, 10 µM read as 90.1%

// recorded viability at 28.5 h, 10 µM for `CC(=O)c1ccc2c(c1)[C@@H]1C=CC[C@@H]1[C@H](C(=O)O)N2` : 91.6%

Then there is this compound:
So, `COc1ccc(Cl)cc1-c1noc(Cn2nc(C)c(Cl)c2C)n1` ? Its viability at 28.5 h, 10 µM was 92.1%
